- Test system: T-47D breast
- test: NCI-60 one-dose screen, 48 h
- test parameters: 10 µM unless noted
About 83,000 compounds went through this panel and 20% of them were active in at least one assay; those are over-represented in the sample as a whole. The source made the active and inactive calls. How the source made its calls: active means growth percent below 10; inactive means the rest.
Your reply should match one of these outcome classes. active, inactive

[
  {
    "compound": "c1csc([C@@H]2C[C@@H]3Cc4ccc5ccccc5c4N2O3)c1",
    "label": "inactive"
  },
  {
    "compound": "CCC(C)(C)C(=O)O[C@H]1C[C@@H](C)C=C2C=C[C@H](C)[C@H](CC[C@@H]3C[C@@H](O)CC(=O)O3)[C@H]21",
    "label": "inactive"
  },
  {
    "compound": "C=C1CC[C@@H]2[C@](C)(COC(C)=O)[C@H](OC(C)=O)CC[C@@]2(C)[C@@H]1CC(Nc1ccc(S(=O)(=O)Nc2cc(C)on2)cc1)C1=CCOC1=O (some centres not stated)",
    "label": "inactive"
  },
  {
    "compound": "COc1cc(/C=C2\\CCC/C(=C\\c3ccc(OCC4CO4)c(OC)c3)C2=O)ccc1OCC1CO1 (configuration not stated)",
    "label": "inactive"
  },
  {
    "compound": "CCOC(=O)c1c(C)c(C(=O)OCC)n(C)c1C",
    "label": "inactive"
  },
  {
    "compound": "Cc1c(C(N)=O)sc2c1c(=O)n(Cc1ccccc1)c1nnc(SCC(=O)Nc3ccc(Cl)cc3)n21",
    "label": "active"
  },
  {
    "compound": "Cc1ccc([N+](=O)[O-])cc1NC(=O)Nc1cccc(F)c1",
    "label": "inactive"
  },
  {
    "compound": "c1cnc2n[nH]c(Nc3ncnc4c3sc3ncccc34)c2c1",
    "label": "inactive"
  },
  {
    "compound": "C[n+]1ccc(C#N)c2ccccc21",
    "label": "inactive"
  },
  {
    "compound": "O=C(Nc1ccc(C2=NCCCN2)cc1)Nc1ccc(C2=NCCCN2)cc1",
    "label": "inactive"
  }
]

# input for lookup
Q. Answer briefly: the call reported for "CC[C@H](C)C(=O)O[C@H]1C[C@@H](C)C=C2C=C[C@H](C)[C@H](CC[C@@H]3C[C@@H](O)CC(=O)O3)[C@H]21" in this assay.
A. inactive

Cited source: PubChem BioAssay (NCI)
